# target desc: T1, human CD3 protein (human, UniProt P07766 23-126; P04234 22-105)
# T1 construct: ELISA coating protein; also called Human CD3D & CD3E Heterodimer Protein
# T1 sequence (P07766 23-126 limits assumed, chain 1 of 2): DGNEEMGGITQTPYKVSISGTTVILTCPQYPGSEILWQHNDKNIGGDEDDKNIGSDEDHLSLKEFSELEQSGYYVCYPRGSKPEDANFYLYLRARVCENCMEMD
# T1 sequence (P04234 22-105 limits assumed, chain 2 of 2): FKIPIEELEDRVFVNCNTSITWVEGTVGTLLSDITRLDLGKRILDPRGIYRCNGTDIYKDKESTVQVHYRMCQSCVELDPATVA
# method notes: ELISA, plate-coated CD3
measure name: EC50
Answers without a unit are incomplete; give the number and then its unit.

*Q* Item 192A7B9 chimeric mAb (antibody, V domains shown, Chimeric mAb) VH: QVQLKESGPGLVQPSQTLSLNCTVSGFSLTSYNVHWVRQPPGKGLEWMGRMRYNGDTSYNSALKSRLSISRDTSKNQVFLKMNSLQTDDTGTYYCTRGPRGGYYSALFDYWGQGVMVTVSS VL: DIQMTQSPSFLSASVGDRVTINCKASQNINRYLNWYQQKLGDAPKVLISIANSLQTGIPSRFSGSGSGTDFTLTISSLQPEDVATYFCLQHNSWYTFGAGTKLELK has what recorded EC50?
*A* 1.91 ng/mL

*Q* 153A6B1 chimeric mAb (antibody, V domains shown, Chimeric mAb of the hybridoma clone; also called 153A6B1C8) VH: QVQLKESGPGLVQPSQTLSLTCTVSGFSLTSYNIHWVRQPPGKGLEWMGRIRYNGDTSYNSALKSRLSISRDTSKNQVFLKMSSLQTDDTGTYYCTRGPYGGSREPLFDYWGQGVMVTVSS VL: DIKMTQSPSFLSAAVGDRVTINCKTSQNINKYLNWFQQKLGAAPKLLIYTTNNLQTGIPSRFSGSGSGTDFTLTISSLQPEDVATYFCLQHGSGYTFGAGTKLELK ?
*A* 2.79 ng/mL

*Q* 155A9B1 chimeric mAb (antibody, V domains shown, Chimeric mAb) VH: QVQLKESGPGLVQPSQTLSLTCTVSGFSLTSYNVHWVRQPPGKGLEWMGRVRYNGDTSYNSALKSRLSISRDTSKNQAFLKMNSLQIDDTGTYYCTRGPYGGSSEPLFDYWGQGVMVTVSS VL: DIKMTQSPSFLSASVGDRVTINCKASQNINKYLNWFQQKLGEAPRLLIYTTNNLQTGIPSRFSGSGSGTDFTLTISSLQPEDVATYFCLQHNSGYTFGAGTKLELK ?
*A* 2.15 ng/mL

*Q* SP34 monoclonal antibody (antibody, human IgG1, lambda, N297A, V domains shown, also called SP34 (Biointron, B6762)) VH: EVQLVESGGGLVQPKGSLKLSCAASGFTFNTYAMNWVRQAPGKGLEWVARIRSKYNNYATYYADSVKDRFTISRDDSQSILYLQMNNLKTEDTAMYYCVRHGNFGNSYVSWFAYWGQGTLVTVSA VL: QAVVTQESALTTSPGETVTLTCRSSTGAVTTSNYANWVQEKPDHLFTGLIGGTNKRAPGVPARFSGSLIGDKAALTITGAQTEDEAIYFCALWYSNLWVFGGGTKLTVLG ?
*A* 6.48 ng/mL
